# Tested on: SK-MEL-28 melanoma
# PROTOCOL DETAILS: NCI tumour cell line growth inhibition, 48 h
Measured log10 TGI values are reported for all entries that follow.
Please keep in mind that the values are log10 of TGI expressed in µM.

Before answering, review these 5 worked examples.
MOLECULE: CN(C)CCNC(=O)c1cccc2c(NCC(=O)O)c3ccccc3nc12
SYSTEM NAME: SK-MEL-28 melanoma
RECORDED RESULT: 1.72

MOLECULE: O=[N+]([O-])c1cccc(-c2nc3sccn3c2-c2ccnc(NCCCNS(=O)(=O)c3cccc(F)c3)n2)c1
SYSTEM NAME: SK-MEL-28 melanoma
RECORDED RESULT: 0.89

MOLECULE: COC(=O)C1=CSC2(S1)C(C(=O)OC)=CSc1c2ssc1=Nc1ccccc1 (stereo not given)
SYSTEM NAME: SK-MEL-28 melanoma
RECORDED RESULT: 0.76

MOLECULE: C=CC(=O)Nc1cccc(C)c1Nc1cc(-c2cccnc2Cc2c(C)c(OC)cc(OC)c2C)ncn1
SYSTEM NAME: SK-MEL-28 melanoma
RECORDED RESULT: 1.84

MOLECULE: CCCCCCCCCCCCCCCCCC(=O)OCC(COC1OC(COP(=O)(O)O)C(O)C(O)C1O)OC(=O)CCCCCCCCCCCCCCCCC (stereo not given)
SYSTEM NAME: SK-MEL-28 melanoma
RECORDED RESULT: 1.26

Q: Value lookup for log10 TGI; key = `O=c1oc2ccccc2c(Nc2ccc3c(c2)S(=O)(=O)c2ccccc2O3)c1[N+](=O)[O-]`
Ans: 1.72

Q: Try this molecule next: `Cn1c2c(cc(S(=O)(=O)c3ccccc3)c1=O)CCc1c-2cnn1-c1ccc(Cl)cc1`
Ans: 1.13

Q: Another: `Nc1ncnc2[nH]ncc12`
Ans: 2.00

Q: Another: Cc1cc(=O)[nH]c(NN2C(Cl)C(=O)C2c2ccc(Cl)cc2)n1 (stereo not given)
Ans: 1.70

Q: Now try O=C(C1CCCCC1)[C@@H]1[C@]2(C(=O)NC3CCCCC32)[C@@H]2CCCN2[C@@]12C(=O)NC1CCC(Cl)CC12 (stereo not given in full) .
Ans: 2.44

Q: Now the same for CCN1CCC(CCOC)(CN2c3ccccc3Sc3ccc(Cl)cc32)C1 (stereo not given)
Ans: 0.56

Q: And then `N#Cc1c(N)oc(-c2cccc([N+](=O)[O-])c2)c1C#N` , what is it?
Ans: 1.60

Q: Now this one: `O=C(c1ccccc1)c1ccc(COc2ccc(C(c3c(O)c4ccccc4oc3=O)c3c(O)c4ccccc4oc3=O)cc2)cc1`
Ans: 1.68

Q: Subsequent entry: N#CC(C#N)=Cc1ccc2c(c1)OC(Cl)O2 (stereo not given)
Ans: 1.57

---

# Tested on: UACC-257 melanoma
# PROTOCOL DETAILS: NCI tumour cell line growth inhibition, 48 h; in the data active = GI50 below about 0.43 µM; inactive = the rest
Write down the outcome that applies. Available outcomes: active, inactive

Please review the following examples before continuing.
COMPOUND: Cc1cc2c3ccc(C)[n+](C)c3ccc2n1C
GROUP: inactive
//
COMPOUND: C=C1CC[C@@H]2[C@](C)(COC(C)=O)[C@@H](O)CC[C@@]2(C)[C@@H]1COc1ccc2ccc(=O)oc2c1
GROUP: inactive
//
COMPOUND: C/C(=N\Nc1ccc2ccccc2n1)c1ccccn1
GROUP: active
//
COMPOUND: CC(CN1CCN(CCOCCO)CC1)CN1c2ccccc2Sc2ccc(Cl)cc21 (stereo unspecified)
GROUP: inactive
//
COMPOUND: O=C(/C(=C/c1ccccc1)CN1CCCCC1)c1ccccc1
GROUP: inactive

Now look at this entry.
Q: How did this test come out for `COc1ccc(-c2cc(-c3ccccc3)nc(SCCCC(=O)NO)n2)cc1` ?
Ans: inactive

---

# Tested on: A498 renal
# PROTOCOL DETAILS: NCI tumour cell line growth inhibition, 48 h
Recorded TGI values for a group of molecules are listed next.
Give just the numeric value; µM need not be written.

Consider the worked cases shown below.
MOLECULE: O=[N+]([O-])c1cccc(-c2nc3sccn3c2-c2ccnc(NCCCNS(=O)(=O)c3cccc(F)c3)n2)c1
ASSAY READOUT: TGI
RECORDED RESULT: 30.5
//
MOLECULE: CN(C)c1ccc(N=Nc2ccc3nc[nH]c3c2)cc1
ASSAY READOUT: TGI
RECORDED RESULT: 41.5
//
MOLECULE: Cc1ccc(NC(=O)/C=C/c2ccccc2)c(C(N)=O)c1
ASSAY READOUT: TGI
RECORDED RESULT: 34.6
//
MOLECULE: O=C(C1CCCCC1)[C@@H]1[C@]2(C(=O)NC3CCCCC32)[C@@H]2CCCN2[C@@]12C(=O)NC1CCC(Cl)CC12 (stereo not given in full)
ASSAY READOUT: TGI
RECORDED RESULT: 265

Q: Any idea what its TGI is? The molecule is `COc1ccc(-c2n[nH]nc2-c2cc(OC)c3c(c2OC)OCO3)cc1`
Ans: 6.38

Q: Now the same for `O=C1c2c(c3c4ccccc4[nH]c3c3ccc4ccccc4c23)C(=O)N1CCN1CCCCC1`
Ans: 9.85

Q: Now consider CCC1C(c2cc(OC)c(OC)c(OC)c2)c2cc3c(cc2OC1N1CCCC1)OCO3 (stereo not given) .
Ans: 14

Q: Now the molecule `Clc1cc(Cl)c(OCC#CI)cc1Cl`
Ans: 26.6

Q: Now consider `C[C@]12CC[C@H]3[C@@H](CCC4=CC(=O)CC[C@@H]43)[C@@H]1CC[C@@H]2OC(=O)CCc1ccccc1` and answer again.
Ans: 30.8

Q: How about `CC(=O)NC1=C(OS(=O)(=O)c2ccc(C)cc2)CN(C)C1=O` ?
Ans: 18

---

# System: HS 578T breast
# PROTOCOL DETAILS: NCI tumour cell line growth inhibition, 48 h; in the data active = GI50 below about 0.43 µM; inactive = the rest
Hi there, use one of these labels in your reply, thanks! Y = active, N = inactive

As a guide, the following entries are already answered.
COMPOUND: Nc1ncnc2[nH]ncc12
GROUP: N

COMPOUND: COc1cc2nc(N3CCCC3)nc(NCC3CCCCC3)c2cc1OC
GROUP: N

COMPOUND: O=C(/C(=C/c1ccc([N+](=O)[O-])cc1)c1ccccc1)c1ccccc1
GROUP: N

COMPOUND: CCN1CCC(CCOC)(CN2c3ccccc3Sc3ccc(Cl)cc32)C1 (stereo unspecified)
GROUP: N

COMPOUND: CC1=C(CCC(C)N(C)Cc2ccc(OCCCN3CCCC3)cc2)C(C)(C)CCC1 (stereo unspecified)
GROUP: N

COMPOUND: O=c1[nH]c2ccccc2nc1-c1c[nH]c2ccccc12
GROUP: N

Q: Could you check what this test reported for `C=CC(=O)N1CCN(c2ccc3cccc(NC(=O)c4cnc(C)cn4)c3n2)CC1` ?
Ans: N

Q: # repeat for C[C@]12CCC3[C@@H](CC[C@@H]4c5nonc5CC[C@]34C)C1CCC(=O)N2 (stereo partly specified)
Ans: N

Q: Then `Clc1cc(Cl)c(OCC#CI)cc1Cl` ?
Ans: N

Q: Also check CC(=O)C(O)N1C(=O)C=CC1=O (stereo unspecified)
Ans: N

Q: Now this one: `C=CC(=O)Nc1cccc(C)c1Nc1cc(-c2cccnc2Cc2c(C)c(OC)cc(OC)c2C)ncn1`
Ans: N

Q: Try the compound `O[C@H]1CO[C@H]2[C@@H]1OC[C@@H]2Oc1ccc(Nc2ccnc(Nc3ccc(O[C@H]4CO[C@H]5[C@@H]4OC[C@@H]5O)c(Cl)c3)n2)cc1Cl`
Ans: N

Q: And for `CC(C)(C)c1n[nH]c(=S)n(/N=C/c2ccc(F)c(Oc3ccccc3)c2)c1=O` ?
Ans: N

Q: Now consider CC(C)CC(CC1=CCC2CC1C2(C)C)C1=C(O)C(C)(C)C(=O)C(C)(C)C1=O (stereo unspecified) and answer again.
Ans: Y

Q: Also need `CCCn1c(C)nc2c1C(=O)c1ccccc1C2=O` , thanks.
Ans: N

Q: Do the same for `Cc1ccc(C2=NOC3=c4ccccc4=CSC3=C2c2ccc([N+](=O)[O-])cc2)cc1` please
Ans: N

---

Attribute: TGI
# Test system: RPMI-8226 leukemia
# PROTOCOL DETAILS: NCI tumour cell line growth inhibition, 48 h
Express it in µM; write the number only.

COMPOUND: C=C1CC2OC2(C(=O)O[C@H]2CCC3[C@@H]4CCC5=CC(=O)CC[C@]5(C)C4CC[C@@]32C)C1=O (stereo partly drawn)
SYSTEM NAME: RPMI-8226 leukemia
RECORDED RESULT: 5.79
//
COMPOUND: N#Cc1c(N)oc(-c2cccc([N+](=O)[O-])c2)c1C#N
SYSTEM NAME: RPMI-8226 leukemia
RECORDED RESULT: 59.8
//
COMPOUND: Nc1ncnc2[nH]ncc12
SYSTEM NAME: RPMI-8226 leukemia
RECORDED RESULT: 14.3

Q: Reported TGI for CCN1CCC(CCOC)(CN2c3ccccc3Sc3ccc(Cl)cc32)C1 (stereo not drawn) : what is it?
Ans: 5.7

Q: Do the same for `Cc1sc(Cc2ccccc2)nc1-c1ccc(N)cc1` please
Ans: 71.4

Q: Query CC1CCCc2c(C#N)c(N)nc(-c3ccc(Cl)cc3)c21 (stereo not drawn) next
Ans: 39.2

Q: Same thing, different compound: `O=C(O[C@H]1[C@@H](O)[C@H](n2cnc3c(Cl)ncnc32)O[C@@H]1COC(c1ccccc1)(c1ccccc1)c1ccccc1)c1ccccc1`
Ans: 5.39

Q: Another compound to check: `O=C(c1ccccc1)c1ccc(COc2ccc(C(c3c(O)c4ccccc4oc3=O)c3c(O)c4ccccc4oc3=O)cc2)cc1`
Ans: 38.4

Value source: PubChem BioAssay (NCI)
